Assay: Human HepG2 cell viability assay in 384 well format
Format: toxicity, cell-based
Set-up: dose 125 nL, time 70.5 hour; concentration not given beside the values
Settings: HepG2 cells, read-out: Inhibition
metric: cytotoxicity at 70.5 h (%)
Kindly answer with a numeric value in %, unit omitted.

# cytotoxicity at 70.5 h lookup, item O=C(c1ccoc1)N1CC[C@H]2C[C@@H](c3ccncn3)O[C@@H]2C1 4.08

# cytotoxicity at 70.5 h lookup, item Cc1cccc(NC(=O)CNC(=O)c2ccccc2F)c1 4.02

# cytotoxicity at 70.5 h lookup, item O=S(=O)(c1ccccc1)N1CCCCC1c1cc[nH]n1 (configuration not stated) 21.8

# cytotoxicity at 70.5 h lookup, item Cc1cc(NC(=O)CN(c2ccccc2)C(C)C)on1 0.413

# cytotoxicity at 70.5 h lookup, item O=C(c1ncccn1)N1C[C@H]2CCC[C@@]2(COCc2cccnc2)C1 15.8

# cytotoxicity at 70.5 h lookup, item O=C(c1cccc2c1OCO2)N1CCC(N2CCCC2)CC1 -1.7

# cytotoxicity at 70.5 h lookup, item Cc1ccc(CN(C)C(=O)CNC(C)(C)c2noc(C(C)(C)C)n2)o1 -0.348

# cytotoxicity at 70.5 h lookup, item Cc1cccc(CN2C[C@@H]3CN(C(=O)c4conc4C)C[C@@H]3C2=O)c1 -3.16

# cytotoxicity at 70.5 h lookup, item CSCC(=O)N(C)Cc1ccc(N(C)C)cc1 -6.63

# cytotoxicity at 70.5 h lookup, item CC(NC(=O)CCC(C)(C)C)C(=O)Nc1ccc(-n2cncn2)cc1 (configuration not stated) -24.9

# cytotoxicity at 70.5 h lookup, item CCN(Cc1ccccc1O)CC1(C)Cc2c(N)nc(N)nc2O1 (configuration not stated) -3.26

# cytotoxicity at 70.5 h lookup, item CC(=O)N1CCCN(S(=O)(=O)c2cc3ccccc3o2)CC1 0.284

# cytotoxicity at 70.5 h lookup, item CC(C)c1nc(CN2CCCCC2Cn2cncn2)cs1 (configuration not stated) 16.2

# cytotoxicity at 70.5 h lookup, item Cc1nc(N2CCC3(CCCN(CC4CC4)C3=O)C2)c2sccc2n1 (configuration not stated) 0.2

# cytotoxicity at 70.5 h lookup, item CC(=O)N1CCC(c2ncc3c(n2)CCN(C(=O)c2ccccc2)C3)C1 (configuration not stated) -2.46

# cytotoxicity at 70.5 h lookup, item COCCc1ncc(CN2C[C@H](C3CC3)[C@@H](N)C2)cn1 -8.11

# cytotoxicity at 70.5 h lookup, item CC/N=c1\nc(NCC)nc2n1C(O)(Nc1ccc(C)cc1C)CS2 (configuration not stated) 4.88
